read-out: Thyroid Hormone Responsive (THRSP), THRSP (gene 7069); assay: LTEA_HepaRG_THRSP: Life Technologies and Expression Analysis (LTEA) Assay for Thyroid Hormone Responsive (THRSP) using HepaRG (AID 2283536); details: mRNA level, 48 h; actives raise or lower the signal
The source made the active and inactive calls. Rule for the calls: active = hit-call score of the fitted dose curve at least 0.9, where 1 is the maximum; inactive = score below 0.9.
Labels: 1 (yes) (active), 0 (no) (inactive)

| Compound | Discrete Label |
| --- | --- |
| O=[N+]([O-])C(CO)(CO)CO | 0 (no) |
| Cc1oc(-c2ccccc2)nc1CCOc1cccc2c1ccn2CCC(=O)O | 1 (yes) |
| CC1(C)NC(=O)NC1=O | 0 (no) |
| CNCc1cc(F)ccc1Oc1ccc(Cl)c(Cl)c1 | 0 (no) |
| CNC(=O)[C@H]1O[C@@H](n2cnc3c(NCc4cc(Cl)ccc4OCc4cc(C)no4)ncnc32)[C@H](O)[C@@H]1N | 0 (no) |
| COCCOC[C@H](CC1(C(=O)NC2CCC(C(=O)O)CC2)CCCC1)C(=O)Oc1ccc2c(c1)CCC2 (stereo not given in full) | 0 (no) |
| CN[C@H]1CC[C@@H](c2ccc(Cl)c(Cl)c2)c2ccc(S(N)(=O)=O)cc21 | 0 (no) |
| Cc1ccccc1Cl | 0 (no) |
| Nc1ccc2c(c1)C(=O)c1ccccc1C2=O | 1 (yes) |
| Oc1ccc2ccccc2c1N=Nc1ccccc1 | 1 (yes) |
| Cc1nc(C)nc(N2C[C@@H](C)N(c3ccnc([C@@H](C)O)n3)[C@@H](C)C2)n1 | 0 (no) |
| CCc1c(C(=O)NN2CCCCC2)nn(-c2ccc(Cl)cc2Cl)c1-c1ccc(Br)cc1 | 0 (no) |
| CC(C)c1ccc(C(=O)N=C(N)N)cc1S(C)(=O)=O | 1 (yes) |
| COCCOCCOC | 0 (no) |
| C1CCC(SSC2CCCCC2)CC1 | 0 (no) |
| O=C(N[C@@H](Cc1ccccc1)[C@@H](O)C(=O)N1C[C@@H](O)[C@@H](O)C1)c1cc2cc(Cl)ccc2[nH]1 | 1 (yes) |
| C=CCOC(=O)c1ccccc1C(=O)OCC=C | 0 (no) |
| Nc1nc(N)c2nc(CNc3ccc(C(=O)N[C@@H](CCC(=O)O)C(=O)O)cc3)cnc2n1 | 0 (no) |
| CN1CCN(Cc2cc(-c3ccc4[nH]c(=O)oc4c3)co2)[C@@H](c2ccc(F)cc2)C1 | 0 (no) |
| CCOC(=O)C(C)(C)Oc1ccc(Cl)cc1 | 0 (no) |
| CC(C)(C)c1cc(O)c(C(C)(C)C)cc1O | 1 (yes) |
| CCCCCCCCCCCCCO | 0 (no) |
| Nc1ccc(S(=O)(=O)c2ccc(N)cc2)cc1 | 0 (no) |
| CCCCCCCC=O | 0 (no) |
| CN1CCCC1=O | 0 (no) |
| Cc1nc(-c2ccc3c(c2)CCN(CCC2CCC(NC(=O)/C=C/c4ccc(F)cc4)CC2)CC3)no1 (stereo not given) | 0 (no) |
| NS(=O)(=O)c1cc2c(cc1Cl)NCNS2(=O)=O | 0 (no) |
| CCOC(=O)CCC(=O)OCC | 0 (no) |
| COc1cc(S(=O)(=O)O)c(C)cc1N=Nc1c(O)ccc2cc(S(=O)(=O)O)ccc12 | 0 (no) |
| Cc1cccc(C)c1O | 0 (no) |
